Target: Macrophage migration inhibitory factor (Homo sapiens, UniProt P14174)
Assay: Inhibition of recombinant human MIF tautomerase activity expressed in Escherichia coli using L-dopachrome methyl ester as substrate incubated for 30 mins prior to substrate addition measured for 3 mins
Items are presented alongside their recorded IC50.

[
  {
    "Entry Smiles": "O=C(Nc1ccccc1C(=O)O)c1cc(S(=O)(=O)Nc2ccc(F)cc2)ccc1Cl",
    "IC50 (µM)": 74.5
  },
  {
    "Entry Smiles": "O=C(O)CCC(=O)Nc1nc(-c2cc3ccccc3oc2=O)cs1",
    "IC50 (µM)": 102
  },
  {
    "Entry Smiles": "COc1cc(-c2nc3sc4c(c3c(=O)[nH]2)CCCC4)cc(Br)c1OCC(=O)O",
    "IC50 (µM)": 22.6
  },
  {
    "Entry Smiles": "Cc1c(CCC(=O)O)c(=O)oc2cc(OCc3ccccc3Br)ccc12",
    "IC50 (µM)": 23.1
  },
  {
    "Entry Smiles": "O=C(O)C[C@@H](Cc1ccccc1)c1ccco1",
    "IC50 (µM)": 85.6
  },
  {
    "Entry Smiles": "COc1ccc2c3c(c(=O)oc2c1OCC(=O)O)CCCC3",
    "IC50 (µM)": 25.8
  },
  {
    "Entry Smiles": "COc1ccc(-c2cc(C)nc(SCc3cccc(C(=O)O)c3)n2)cc1",
    "IC50 (µM)": 45.5
  }
]

###

Target: Macrophage migration inhibitory factor (Homo sapiens) (UniProt P14174)
Sequence (whole entry): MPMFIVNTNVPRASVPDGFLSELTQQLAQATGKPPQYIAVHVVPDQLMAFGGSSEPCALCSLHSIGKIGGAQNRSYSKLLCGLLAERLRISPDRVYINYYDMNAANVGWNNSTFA
Test: Inhibition of recombinant MIF (unknown origin)-induced ERK1/2 phosphorylation in mouse RAW264.7 cells at 20 uM preincubated for 30 mins followed by protein addition measured after 20 mins by Western blot analysis relative to control
Assay type: cell-based

[
  {
    "Entry Smiles": "O=C(O)c1cccc(NC(=S)NC(=O)c2ccc(-c3ccccc3)cc2)c1",
    "inhibition": "43%"
  },
  {
    "Entry Smiles": "COc1ccc(C(=O)O)cc1NC(=S)NC(=O)c1cc2ccccc2o1",
    "inhibition": "59%"
  },
  {
    "Entry Smiles": "COc1cc(-c2nc3ccccc3s2)cc(Br)c1OCC(=O)O",
    "inhibition": "55%"
  }
]

Origin of the recorded values: ChEMBL document CHEMBL3259606
